STUDY TARGET: Cytochrome P450 3A4 (Homo sapiens, UniProt P08684)
Sequence (P08684 whole entry): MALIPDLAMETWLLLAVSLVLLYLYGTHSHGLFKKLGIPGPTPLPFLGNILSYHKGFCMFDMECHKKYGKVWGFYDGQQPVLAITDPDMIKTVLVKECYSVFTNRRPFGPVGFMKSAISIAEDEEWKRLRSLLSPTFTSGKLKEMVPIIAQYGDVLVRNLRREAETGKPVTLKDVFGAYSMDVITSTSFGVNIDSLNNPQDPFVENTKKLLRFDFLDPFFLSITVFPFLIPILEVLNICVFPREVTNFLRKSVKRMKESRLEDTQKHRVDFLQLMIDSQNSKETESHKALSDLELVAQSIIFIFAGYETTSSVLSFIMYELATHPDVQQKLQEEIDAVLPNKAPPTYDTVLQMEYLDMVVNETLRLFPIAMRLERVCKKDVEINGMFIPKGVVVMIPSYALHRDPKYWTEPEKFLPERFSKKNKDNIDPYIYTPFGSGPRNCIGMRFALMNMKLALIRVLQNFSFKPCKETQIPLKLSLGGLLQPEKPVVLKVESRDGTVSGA
TEST METHOD NOTES: Inhibition of CYP3A4 (unknown origin) using midazolam as substrate measured after 30 mins
Type: ADME
MEASURED PARAMETER: pIC50
Just the number, please; pIC50 means minus log10 of the concentration in mol/L.

Q) Which pIC50 is reported for this compound? "Cc1cccnc1-c1ccc(-c2n[nH]c3ncc(-c4ccc5c(c4)CC[C@@H](N4C6COCC4C6)CC5)cc23)nc1"
A) 4.77

====

TEST METHOD NOTES: Half life in human (healthy individuals) at 90 mg, single oral dose
Format: ADME
EXPERIMENTAL SETUP: in vivo
MEASURED PARAMETER: half-life (h)
Just the number in h, nothing appended.

Q) Query (compound): "Cc1cccnc1-c1ccc(-c2n[nH]c3ncc(-c4ccc5c(c4)CC[C@@H](N4C6COCC4C6)CC5)cc23)nc1" ; field requested: half-life
A) 54
